Numbers sourced from patent US10202344B2.

Exercise: for every item that follows, state its recorded IC50.
target_under_test: human Nav1.7 (Homo sapiens (Human), UniProt Q15858)
Sequence (Q15858 other isoform, or with tags, fused parts or gaps): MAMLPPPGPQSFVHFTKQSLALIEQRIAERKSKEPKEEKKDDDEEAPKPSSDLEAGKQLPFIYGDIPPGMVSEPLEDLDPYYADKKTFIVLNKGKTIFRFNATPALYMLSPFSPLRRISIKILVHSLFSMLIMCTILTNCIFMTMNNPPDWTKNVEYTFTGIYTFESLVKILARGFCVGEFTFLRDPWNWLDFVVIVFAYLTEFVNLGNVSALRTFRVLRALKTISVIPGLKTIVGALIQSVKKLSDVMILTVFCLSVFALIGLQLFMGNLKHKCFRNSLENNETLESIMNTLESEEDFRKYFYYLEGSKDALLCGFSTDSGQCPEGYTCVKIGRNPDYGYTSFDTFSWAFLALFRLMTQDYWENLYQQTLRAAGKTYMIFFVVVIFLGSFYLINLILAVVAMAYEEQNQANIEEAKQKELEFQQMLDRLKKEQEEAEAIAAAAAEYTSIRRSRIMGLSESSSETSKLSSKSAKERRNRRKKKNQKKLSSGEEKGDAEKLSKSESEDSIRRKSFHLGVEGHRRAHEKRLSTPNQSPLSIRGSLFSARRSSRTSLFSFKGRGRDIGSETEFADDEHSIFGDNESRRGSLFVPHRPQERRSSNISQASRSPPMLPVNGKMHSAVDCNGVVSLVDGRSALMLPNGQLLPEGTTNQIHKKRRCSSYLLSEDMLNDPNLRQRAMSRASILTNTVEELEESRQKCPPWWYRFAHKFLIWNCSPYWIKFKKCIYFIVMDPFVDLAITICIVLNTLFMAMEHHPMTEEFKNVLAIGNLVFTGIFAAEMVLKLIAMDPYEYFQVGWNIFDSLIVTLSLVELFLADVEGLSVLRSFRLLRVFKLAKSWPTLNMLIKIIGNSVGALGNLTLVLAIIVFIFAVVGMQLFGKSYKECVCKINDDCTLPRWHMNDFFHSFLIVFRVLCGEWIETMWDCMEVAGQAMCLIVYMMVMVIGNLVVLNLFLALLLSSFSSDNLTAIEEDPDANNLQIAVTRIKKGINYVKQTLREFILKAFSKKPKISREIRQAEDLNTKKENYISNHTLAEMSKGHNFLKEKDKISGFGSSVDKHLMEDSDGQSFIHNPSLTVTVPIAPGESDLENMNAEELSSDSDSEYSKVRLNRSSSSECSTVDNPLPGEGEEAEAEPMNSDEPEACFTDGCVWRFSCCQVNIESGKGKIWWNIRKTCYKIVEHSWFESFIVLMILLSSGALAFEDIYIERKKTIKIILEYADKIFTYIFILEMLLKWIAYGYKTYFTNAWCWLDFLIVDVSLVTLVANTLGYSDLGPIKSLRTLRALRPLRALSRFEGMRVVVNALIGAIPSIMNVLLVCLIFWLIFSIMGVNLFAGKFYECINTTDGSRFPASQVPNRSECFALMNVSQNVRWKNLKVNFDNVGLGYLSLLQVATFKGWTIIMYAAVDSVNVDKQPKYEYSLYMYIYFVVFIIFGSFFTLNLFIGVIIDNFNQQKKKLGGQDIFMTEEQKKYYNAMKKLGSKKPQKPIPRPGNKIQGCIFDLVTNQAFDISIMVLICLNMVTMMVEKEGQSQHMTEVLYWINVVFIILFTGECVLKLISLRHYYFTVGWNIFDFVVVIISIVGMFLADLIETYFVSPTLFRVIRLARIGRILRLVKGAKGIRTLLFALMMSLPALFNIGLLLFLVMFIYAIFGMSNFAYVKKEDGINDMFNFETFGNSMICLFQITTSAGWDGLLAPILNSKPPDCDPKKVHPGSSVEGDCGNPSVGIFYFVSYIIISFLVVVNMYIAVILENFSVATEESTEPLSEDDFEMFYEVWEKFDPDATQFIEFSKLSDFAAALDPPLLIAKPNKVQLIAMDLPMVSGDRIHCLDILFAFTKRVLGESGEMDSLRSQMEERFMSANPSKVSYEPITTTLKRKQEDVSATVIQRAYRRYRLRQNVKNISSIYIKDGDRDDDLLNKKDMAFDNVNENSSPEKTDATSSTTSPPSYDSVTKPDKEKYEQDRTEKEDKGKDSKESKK
assay_notes: FLIPR or FLIPR TETRA sodium dye assay with KCl and test article pre-incubation
Format: cell-based
assay_conditions: recombinant human Nav1.7 in HEK293 cells; sodium dye assay with KCl; read-out: FLIPR Nav1.7 IC50 (μM) ± SEM
Write the answer as a number in µM, unit excluded.

Which IC50 value belongs to NCCc1cn(-c2ccc(Oc3ccccc3)cc2)c2ccccc12 ?
0.684

Which IC50 value belongs to N#Cc1cc(Oc2ccc(-n3cc(C(=O)C(=O)NC[C@H](O)CO)c4ccccc43)cc2)ccc1C(F)(F)F ?
0.572

Which IC50 value belongs to CN(C)CCc1cn(-c2ccc(Oc3ccccc3)cc2)c2ccc(C[C@H]3COC(=O)N3)cc12 ?
1.9

Which IC50 value belongs to N#Cc1cc(Oc2ccc(-n3nc(C(N)=O)c4ccccc43)cc2)ccc1C(F)(F)F ?
0.602

Which IC50 value belongs to N#Cc1cc(Oc2ccc(-n3cc(C[C@H]4COC(=O)N4)c4ccccc43)cc2)ccc1C(F)(F)F ?
0.715

Which IC50 value belongs to NC(=O)c1nn(-c2ccc(Oc3ccc(C(F)(F)F)cc3)cc2)c2ccc(F)cc12 ?
6.97

Which IC50 value belongs to CCOC(=O)C(Cc1c[nH]c2ccc(-c3ccc(Oc4ccccc4)cc3)cc12)[N+](=O)[O-] (stereo not drawn) ?
5.14

Which IC50 value belongs to N#Cc1cccc(Oc2ccc(-n3cc(C[C@H](N)CO)c4ccccc43)cc2)c1 ?
0.383

* * *

target_under_test: hNav1.7 (Homo sapiens (Human), UniProt Q15858)
Sequence (Q15858 other isoform, or with tags, fused parts or gaps): as above
assay_notes: Electrophysiology (EP) assay, whole-cell patch clamp
assay_conditions: hNav1.7 expressing HEK-293 cells, read-out: EP Nav1.7 Ki
measure: Ki
Give me the value, and tack the unit on after it.

GET /values?readout=Ki&system=hNav1.7 (Homo sapiens (Human), UniProt Q15858)&item= CN(C)CCc1cn(-c2ccc(Oc3ccccc3)cc2)c2ccc(C[C@H]3COC(=O)N3)cc12
1.31 µM

GET /values?readout=Ki&system=hNav1.7 (Homo sapiens (Human), UniProt Q15858)&item= N#Cc1cccc(Oc2ccc(-n3cc(C[C@H](N)CO)c4ccccc43)cc2)c1
0.05 µM

* * *

target_under_test: human Nav1.7 (Homo sapiens (Human), UniProt Q15858)
assay_notes: FLIPR or FLIPR TETRA sodium dye assay with KCl and test article pre-incubation
Assay type: cell-based
assay_conditions: read-out: FLIPR Nav1.7 IC50 (μM) ± SEM
measure: IC50 (µM)
Write the answer as a number in µM, unit excluded.

Which IC50 value belongs to N#Cc1cc(Oc2ccc(-n3cc(C(=O)C(N)=O)c4ccccc43)cc2)ccc1C(F)(F)F ?
3.54

Which IC50 value belongs to O=C(NCCO)c1nn(-c2ccc(Oc3ccccc3)cc2)c2ccccc12 ?
0.16
